Entry source: patent US20160272698A1

# pKd per record follows
Target: AVR1674 (LFG2 3F3:3H9:2C10:4B10)
Assay: biolayer interferometry (Octet), biotinylated peptide on streptavidin tips, LFG2:4B10 mAb in solution, 1:1 Langmuir fit
Ends that are not written are not given here.
Quick note: pKd means taking -log10 of the concentration in moles per liter.

Would you kindly share the measured pKd for TFKDEAGGGSK-biotin […-biotin (SEQ ID NO: 31)] ? 7.79

Reported pKd, binder TFKDEIGGGSK-biotin […-biotin (SEQ ID NO: 25)] : ____ 7.86

# query: pKd of entry TFQDEIGGGSK-biotin […-biotin (SEQ ID NO: 37)] 7.46

Using the record for TFKDAIGGGSK-biotin […-biotin (SEQ ID NO: 30)] , report its pKd. 7.61

# input binder: THKDEIGGGSK-biotin […-biotin (SEQ ID NO: 36)] ; wanted: its pKd 7.22
